For each of the compounds below, state its growth.
Test system: DU-145 prostate
procedureText: NCI-60 one-dose screen, 48 h (100 = growth as untreated, 0 = no growth, -100 = all killed)
runConditions: 10 µM unless noted
Compounds without any hit were thinned out: in the full panel of roughly 83,000, 20% have a hit.
Give bare numbers, in %.

compound	observedResult
Cc1nnc(Nc2ccc(NC(=O)Nc3ccc(Cl)cc3)cc2)c2ccccc12	57.8

Give growth for all compounds that follow.
1. O[C@@H]1Cc2ccc3ccccc3c2N[C@H](c2ccoc2)C1
2. COc1cc(OC)c2cc(C(=O)O)c(=O)oc2c1
3. CSC1=Nc2c(c(C)c(-c3ccccc3)n2CCCN2CCCCC2)C2=NC(=O)C[C@H](C)N12
4. Clc1ncn[nH]1
5. COc1ccc2c(c1)C(=O)/C(=C/c1ccc([N+](=O)[O-])s1)O2
6. COc1cc(OC)c2sc(-c3ccc(-n4cncc4-c4ccc(N)cc4)cc3)nc2c1

Result:
1: 112; 2: 129; 3: 47.6; 4: 110; 5: 43.8; 6: 80.3

Give growth for all compounds that follow.
1. O=C(CSCC(=O)N/N=C/c1ccccc1O)N/N=C\c1ccccc1O
2. Clc1ccccc1[C@@H]1C[C@@H]2Cc3cc(Br)c4ccccc4c3N1O2
3. N=C(N)/N=C(\CCc1nc2ccccc2[nH]1)c1nc2ccccc2[nH]1
4. Cc1ccc(C(=O)Nc2ccc(Cl)cc2C(=O)NCc2ccccc2)cc1
5. COc1c(C)c2c(c(O)c1C/C=C(\C)CCC(=O)OCCN1CCOCC1)C(=O)OC2
6. C=CCCCCCCCCC(=O)[O][Sn]([CH2]CCC)([CH2]CCC)[CH2]CCC
7. CCN1CCN(c2cc(-c3cn[nH]c3-c3cc(C)cc(OC)c3)nc(-c3cccnc3)n2)CC1
8. Oc1[nH]c2ccc(Cl)cc2c1/C=c1/ccc2c(c1)N=C(c1ccc(C(F)(F)F)cc1)N=2

Result:
[37.1, 61, 111, 96, 36.4, -95.2, 75, 70]

----------
System: MOLT-4 leukemia
procedureText: NCI-60 one-dose screen, 48 h
runConditions: 10 µM unless noted
About 83,000 compounds went through this panel and 20% of them were active in at least one assay; those are over-represented in the sample as a whole. Calls of active or inactive are those of the source. How the source made its calls: active means growth percent below 10; inactive means the rest.
// classify into 1 for active, -1 for inactive

compound	assignedLabel
ClC1=C(Cl)C(=C2C(Cl)=C(Cl)C(Cl)=C2Cl)C(Cl)=C1Cl	-1
COc1ccc(C2CC(c3ccc(OC)c(OC)c3)=NN2C(=O)c2cc(OC)c(OC)c(OC)c2)cc1 (stereo not given)	-1
O=C(Nc1cccc([N+](=O)[O-])c1)c1cccc(C(=O)Nc2cccc([N+](=O)[O-])c2)c1	-1
CC(=O)Oc1ccc(C2OC(c3ccc4ccccc4c3OC(C)=O)=NN2C(C)=O)c(OC(C)=O)c1 (stereo not given)	1
CCN(CC)c1ccc(C(O)C2=CC(=O)c3ccccc3C2=O)cc1 (stereo not given)	1

Ask: Look up the recorded call for Oc1[nH]c2ccccc2c1/C=c1/ccc2c(c1)N=C(c1cc(F)cc(F)c1)N=2 in this test.
Result: -1

Ask: What do we get for O=C(NN(C(=O)c1ccccc1)c1cccs1)c1ccccc1 ?
Result: -1

Ask: What do we get for COc1ccc2c(c1)[nH]c(=O)c1c3cc(OC)c(OC)cc3cn21 ?
Result: 1

Ask: What do we get for COc1ccc(/C=C/C(=O)Nc2cccnc2Nc2ccc(F)cc2)cc1 ?
Result: -1

Ask: What do we get for C=C(C)[C@@H]1C/C=C(/C=O)CC[C@@H]2O[C@@]2(C)CC/C=C(\C)CC1 ?
Result: -1

Numbers sourced from PubChem BioAssay (NCI).
